Hello, the source for this data is paper PMC11747885, in case you need it.

biological target: Rlig1-AMP (Homo sapiens, UniProt Q8N999); construct: made in house; host or cells: E. coli BL21 (DE3), pET15b-Rlig1; test: FRET-based high-throughput screening of inhibitors for Rlig1-AMP; format: biochemical; details: HTS hits; difference of raw data w/o and w enzyme
Sequence (Q8N999 whole entry): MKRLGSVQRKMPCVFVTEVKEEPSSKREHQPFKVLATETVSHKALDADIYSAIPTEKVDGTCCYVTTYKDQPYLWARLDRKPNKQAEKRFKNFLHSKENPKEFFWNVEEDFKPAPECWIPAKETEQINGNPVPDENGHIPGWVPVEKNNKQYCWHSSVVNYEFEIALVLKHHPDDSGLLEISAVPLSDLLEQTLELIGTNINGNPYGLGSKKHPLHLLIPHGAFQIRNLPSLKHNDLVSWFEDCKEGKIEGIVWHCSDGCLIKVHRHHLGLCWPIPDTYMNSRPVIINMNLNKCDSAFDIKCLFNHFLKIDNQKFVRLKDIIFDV

{"compound": "Cc1cc(N=Nc2ccc3c(c2)CCC(=O)N3)c(N)cc1O", "experimental_target": "Rlig1-AMP (Homo sapiens, UniProt Q8N999)", "1-D Distance": 1352}
{"compound": "CN(C)Cc1ccc(-c2cnn3c(-c4cccc(NC(=O)c5cccc(C(F)(F)F)c5)c4)ccnc23)cc1", "experimental_target": "Rlig1-AMP (Homo sapiens, UniProt Q8N999)", "1-D Distance": 563}
{"compound": "CCCCCCCCCCCCCCCC(=O)NCCCC[C@@H](N)C(=O)NCCCNCCCCNCCCN.Cl.Cl.Cl.Cl [AMXT-1501 tetrahydrochloride]", "experimental_target": "Rlig1-AMP (Homo sapiens, UniProt Q8N999)", "1-D Distance": 45}
{"compound": "COC1=CC(c2cc3ccccc3[nH]2)=N/C1=C\\c1[nH]c(C)cc1C.CS(=O)(=O)O [Obatoclax (Mesylate)]", "experimental_target": "Rlig1-AMP (Homo sapiens, UniProt Q8N999)", "1-D Distance": 702}
{"compound": "CC(C)c1nc2c([nH]1)-c1ccccc1C(=O)C2=O", "experimental_target": "Rlig1-AMP (Homo sapiens, UniProt Q8N999)", "1-D Distance": 578}
{"compound": "NC[C@@H]1O[C@H](O[C@H]2[C@@H](O)[C@H](O[C@@H]3[C@@H](O)[C@H](N)C[C@H](N)[C@H]3O[C@H]3O[C@H](CN)[C@@H](O)[C@H](O)[C@H]3N)O[C@@H]2CO)[C@H](N)[C@@H](O)[C@@H]1O.O=S(=O)(O)O [Neomycin (sulfate)]", "experimental_target": "Rlig1-AMP (Homo sapiens, UniProt Q8N999)", "1-D Distance": 482}
{"compound": "COc1cc(Cl)c(C(=O)N[C@@H](CN[C@H]2CC[C@@H](N)CC2)Cc2ccc(C#N)cc2)cc1-c1ccc(CN[C@H](C)c2ccc(C)cc2)o1", "experimental_target": "Rlig1-AMP (Homo sapiens, UniProt Q8N999)", "1-D Distance": 2218}
{"compound": "COc1cccc2c1C(=O)c1c(O)c3c(c(O)c1C2=O)C[C@@](O)(C(=O)CO)C[C@@H]3O[C@H]1C[C@H](N)[C@H](O[C@@H]2CCCCO2)[C@H](C)O1.Cl [Pirarubicin (Hydrochloride)]", "experimental_target": "Rlig1-AMP (Homo sapiens, UniProt Q8N999)", "1-D Distance": 1020}
{"compound": "O=C1c2ccccc2-c2nc3nnnn3nc21.O=C1c2ccccc2-c2nn3nnnc3nc21", "experimental_target": "Rlig1-AMP (Homo sapiens, UniProt Q8N999)", "1-D Distance": 385}
{"compound": "C=C1C(=O)O[C@@H]2[C@H]3C(C)=CC[C@@]34O[C@@]4(C)CC[C@@H]12", "experimental_target": "Rlig1-AMP (Homo sapiens, UniProt Q8N999)", "1-D Distance": 1673}
{"compound": "CCCCC(=O)OCC(=O)[C@]1(O)Cc2c(O)c3c(c(O)c2[C@@H](O[C@H]2C[C@H](NC(=O)C(F)(F)F)[C@H](O)[C@H](C)O2)C1)C(=O)c1c(OC)cccc1C3=O", "experimental_target": "Rlig1-AMP (Homo sapiens, UniProt Q8N999)", "1-D Distance": 1660}
{"compound": "N[C@@H](Cc1cc(CP(=O)(O)O)cc(-c2ccccc2Cl)c1)C(=O)O", "experimental_target": "Rlig1-AMP (Homo sapiens, UniProt Q8N999)", "1-D Distance": 1679}
{"compound": "Cc1cc(NCCCN(C)C)c2ccc3c(ccc4c(NCCCN(C)C)cc(C)nc43)c2n1.Cl.Cl.Cl.Cl [FGI-106 (tetrahydrochloride)]", "experimental_target": "Rlig1-AMP (Homo sapiens, UniProt Q8N999)", "1-D Distance": 429}
{"compound": "NC(=O)c1cnc2[nH]ccc2c1N[C@@H]1[C@@H]2CC3C[C@H]1C[C@@](O)(C3)C2", "experimental_target": "Rlig1-AMP (Homo sapiens, UniProt Q8N999)", "1-D Distance": 1954}
{"compound": "COc1cccc2c1C(=O)c1c(O)c3c(c(O)c1C2=O)C[C@@](O)(C(C)=O)C[C@@H]3O[C@H]1C[C@H](NC(=O)OCc2ccc(O[C@@H]3O[C@H](CO)[C@H](O)[C@H](O)[C@H]3O)c([N+](=O)[O-])c2)[C@H](O)[C@H](C)O1", "experimental_target": "Rlig1-AMP (Homo sapiens, UniProt Q8N999)", "1-D Distance": 1434}
{"compound": "Cn1nc(-c2ccc(C(F)(F)F)cc2)nc2c(=O)n(C)c(=O)nc1-2", "experimental_target": "Rlig1-AMP (Homo sapiens, UniProt Q8N999)", "1-D Distance": 868}
{"compound": "Cn1nc(-c2ccccc2)nc2c(=O)n(C)c(=O)nc1-2", "experimental_target": "Rlig1-AMP (Homo sapiens, UniProt Q8N999)", "1-D Distance": 2083}
{"compound": "CC1CS(=O)(=O)CCN1/N=C/c1ccc([N+](=O)[O-])o1 (stereo not drawn)", "experimental_target": "Rlig1-AMP (Homo sapiens, UniProt Q8N999)", "1-D Distance": 1863}
{"compound": "CC(C)(C)c1cc(/C=C(\\C#N)C(N)=S)cc(C(C)(C)C)c1O", "experimental_target": "Rlig1-AMP (Homo sapiens, UniProt Q8N999)", "1-D Distance": 1883}
{"compound": "Cc1[nH]c(/C=C2\\C(=O)Nc3ccc(S(=O)(=O)Cc4c(Cl)cccc4Cl)cc32)c(C)c1C(=O)N1CCC[C@@H]1CN1CCCC1", "experimental_target": "Rlig1-AMP (Homo sapiens, UniProt Q8N999)", "1-D Distance": 1429}
{"compound": "O=S(=O)(O)c1ccc2cc(N=Nc3cc(S(=O)(=O)O)c4cccnc4c3O)ccc2c1", "experimental_target": "Rlig1-AMP (Homo sapiens, UniProt Q8N999)", "1-D Distance": 982}
{"compound": "CN1CCC(Nc2nc(Nc3ccc(Oc4ccccc4)cc3)c3c(=O)[nH]cc(Br)c3n2)CC1", "experimental_target": "Rlig1-AMP (Homo sapiens, UniProt Q8N999)", "1-D Distance": 603}
{"compound": "CCCc1cc(C(=O)N[C@H](Cc2ccc(-c3cccc(OC(F)(F)F)c3)nc2)C(=O)N[C@@H]2CCNC2)sc1C", "experimental_target": "Rlig1-AMP (Homo sapiens, UniProt Q8N999)", "1-D Distance": 670}
{"compound": "O.O=C1C=CC[C@@H]2[C@H]3CCCN4CCC[C@@H](CN12)[C@@H]34 [Sophocarpine (monohydrate)]", "experimental_target": "Rlig1-AMP (Homo sapiens, UniProt Q8N999)", "1-D Distance": 1834}
{"compound": "COC(=O)Cc1ccc(C(C)(C)C)cc1 [Methyl p-tert-butylphenylacetate]", "experimental_target": "Rlig1-AMP (Homo sapiens, UniProt Q8N999)", "1-D Distance": 2067}
{"compound": "Cc1cnc(CNC(=O)c2c(=O)c3ccc(N4CCCN(C)CC4)nc3n3c2sc2ccccc23)cn1.Cl.Cl [CX-5461 dihydrochloride]", "experimental_target": "Rlig1-AMP (Homo sapiens, UniProt Q8N999)", "1-D Distance": 1694}
{"compound": "CN1CCCN(C(=O)c2cccc(-c3ccc(/C=C4/C(=O)Nc5ccc(Cl)cc54)o3)c2)CC1", "experimental_target": "Rlig1-AMP (Homo sapiens, UniProt Q8N999)", "1-D Distance": 641}
